I'd appreciate it if you could supply IC90 values for the items below.
test system: Mycobacterium tuberculosis H37Rv; experiment: Mtb dose response; format: cell-based; conditions: Table 2; Mtb H37Rv dose response
Numbers only, in µg/mL.

[
  {
    "entry.smiles": "Cc1cc(Nc2ccc(C)c(C)c2)n2ncc(-c3ccccc3)c2n1",
    "units.symbol": "µg/mL",
    "value.observed": 3.4
  }
]

Would you be so kind as to report IC90 for each listed record?
1. Cc1cc(Nc2ccc(C)c(Cl)c2)n2ncc(-c3ccccc3)c2n1
2. COc1ccccc1-c1cnn2c(Nc3cccc(Cl)c3)cc(C)nc12
3. COc1cccc(Nc2cc(C)nc3c(-c4ccccc4)cnn23)c1
4. Cc1cc(C)cc(Nc2cc(C)nc3c(-c4ccccc4)cnn23)c1

-- reply
1. 3.4
2. 1.7
3. 1.8
4. 2.7
